- Tested on: human CETP mRNA
- Measurement notes: Antisense inhibition of human CETP mRNA in primary hepatocytes from huCETP transgenic mice (Example 4)
- Assay type: cell-based, mouse
- Run conditions: 100 nM, cytofectin, ~24 hours
Strand notation (5' to 3'): a small letter for the sugar, then the base; units joined by * are phosphorothioate-linked, units joined directly phosphodiester-linked; [ ] holds rarer units or linkages, { } end groups; capitals alone tell only the bases. e = 2'-O-(2-methoxyethyl) (MOE); [5mC] = 5-methylcytosine; d = 2'-deoxy (DNA)
// values below are reported Percent inhibition of human CETP mRNA
Metric: Percent inhibition of human CETP mRNA (%)

Substance	Observed result
ISIS 349461: 5-10-5 MOE gapmer ATACTTGACTTGGCCAAGGA (eA*eT*eA*e[5mC]*eT*dT*dG*dA*d[5mC]*dT*dT*dG*dG*d[5mC]*d[5mC]*eA*eA*eG*eG*eA)	65
ISIS 349444: 5-10-5 MOE gapmer TCCTGGCCCCAGAGATTCAC (eT*e[5mC]*e[5mC]*eT*eG*dG*d[5mC]*d[5mC]*d[5mC]*d[5mC]*dA*dG*dA*dG*dA*eT*eT*e[5mC]*eA*e[5mC])	59
ISIS 349507: 5-10-5 MOE gapmer TGATGATGTCGAAGAGGCTC (eT*eG*eA*eT*eG*dA*dT*dG*dT*d[5mC]*dG*dA*dA*dG*dA*eG*eG*e[5mC]*eT*e[5mC])	71
ISIS 349473: 5-10-5 MOE gapmer AGCAGCTTATGGAAAGACAG (eA*eG*e[5mC]*eA*eG*d[5mC]*dT*dT*dA*dT*dG*dG*dA*dA*dA*eG*eA*e[5mC]*eA*eG)	55
ISIS 349463: 5-10-5 MOE gapmer CTGCTGGCGATGGACAAGTG (e[5mC]*eT*eG*e[5mC]*eT*dG*dG*d[5mC]*dG*dA*dT*dG*dG*dA*d[5mC]*eA*eA*eG*eT*eG)	58

Source: patent US20130053430A1
